The measured values listed here are drawn from patent US20250263469A1.

biological target: SARS-CoV-2 Spike N439K on pseudotyped virus (SARS-CoV-2, UniProt P0DTC2 14-1273); assay: cell-based or functional assay
Quantity measured: Potency change vs WT PsV

Answered examples (2):
INSERT INTO results (binder, reading) VALUES
  ('mAb 52 (antibody, V domains shown) VH: QVQLVQSGAEVKKPGSSVKVSCKASGYTFTSYGISWVRQAPGQGLEWMGGIIPMFGTTNYAQKFQGRVTITADKSTSTAYMELSSLRSEDTAVYYCARDRGDTIDYWGQGTLVTVSS VL: DIQMTQSPSSLSASVGDRVTITCRASQGISNNLNWYQQKPGKAPKLLIYAASSLESGVPSRFSGSGSGTDFTLTISSLQPEDFATYYCQQGNGFPLTFGPGTKVDIKR', '1.8 fold'),
  ('mAb 82 (antibody, V domains shown) VH: QVQLVQSGAEVKKPGASVKVSCKASGGSFSTSAFYWVRQAPGQGLEWMGWINPYTGGTNYAQKFQGRVTMTRDTSTSTVYMELSSLRSEDTAVYYCARSRALYGSGSYFDYWGQGTLVTVSS VL: DIQMTQSPSSLSASVGDRVTITCRASQVISNYLAWYQQKPGKAPKLLIYDASNLETGVPSRFSGSGSGTDFTLTISSLQPEDFATYYCQQSFSPPPTFGQGTRLEIKR', '1.1 fold');

Let's switch to this binder now.
*Q* What does the record list as Potency change vs WT PsV for mAb 324 (antibody, V domains shown) VH: QVQLVQSGAEVKKPGASVKVSCKASGGTFNNYGISWVRQAPGQGLEWMGWMNPNSGNTGYAQKFQGRVTMTRDTSTSTVYMELSSLRSEDTAVYYCARVGDYGDYIVSPFDLWGRGTLVTVSS VL: DIQMTQSPSSLSASVGDRVTITCRASQSITTYLNWYQQKPGKAPKLLIYDASNLETGVPSRFSGSGSGTDFTLTISSLQPEDFATYYCQQSYSTPPTFGQGTKVEIKR ?
*A* -1 fold
